The origin of these recorded values is patent US20080161232A1.

Molecular target: human C5aR(CD88) (Homo sapiens, UniProt P21730)
Construct: expressed in transfected cells; host or cells: rat basophilic leukemia cells (RBL)
Sequence (P21730 whole entry): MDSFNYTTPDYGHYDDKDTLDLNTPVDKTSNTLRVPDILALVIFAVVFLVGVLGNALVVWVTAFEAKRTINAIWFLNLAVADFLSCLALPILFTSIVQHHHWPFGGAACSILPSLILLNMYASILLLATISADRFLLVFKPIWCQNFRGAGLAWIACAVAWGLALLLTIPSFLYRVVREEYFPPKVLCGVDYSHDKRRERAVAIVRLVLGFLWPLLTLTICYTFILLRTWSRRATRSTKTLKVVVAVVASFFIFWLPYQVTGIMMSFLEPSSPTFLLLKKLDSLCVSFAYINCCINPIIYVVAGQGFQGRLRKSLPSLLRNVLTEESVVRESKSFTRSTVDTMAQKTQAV
Experiment: Determination of the IC50 value in an enzyme release assay (functional assay, antagonistic activity)
Format: cell-based
Details: antagonistic activity; IC50 group in enzyme release assay, RBL cells expressing human C5aR(CD88); read-out: activity (group)
Starred links: 1 amine or outer side, 2 acyl side, 3 side chain; linkers in the order of their positions; H or OH if unused. Positions of bridges follow the written chain, without caps; N, C: chain ends. Non-standard residues stand in square brackets, D forms with d. Residues, ends and D or L forms follow the SMILES beside them. X9 = COc1ccc(Cn2cnc(C[C@H](N[*:1])C(=O)[*:2])c2)cc1; Phe(3-Cl) = N[C@@H](Cc1cccc(Cl)c1)C(=O)O; Phe(4-F) = N[C@@H](Cc1ccc(F)cc1)C(=O)O; Bta = N[C@@H](Cc1csc2ccccc12)C(=O)O; Hyp = O=C(O)[C@@H]1C[C@@H](O)CN1; d(hLeu) = CC(C)CC[C@@H](N)C(=O)O; Tic = O=C(O)[C@@H]1Cc2ccccc2CN1; dCha = N[C@H](CC1CCCCC1)C(=O)O; Phg = N[C@H](C(=O)O)c1ccccc1; hLeu = CC(C)CC[C@H](N)C(=O)O; NMeA = CN[C@@H](C)C(=O)O; Orn = NCCC[C@H](N)C(=O)O; Aze = O=C(O)[C@@H]1CCN1; Dab = NCC[C@H](N)C(=O)O
Readout: IC50

compound COc1ccc(Cn2cnc(C[C@@H]3NC(=O)[C@H](Cc4c[nH]c5ccccc45)NC(=O)[C@@H](CC4CCCCC4)NC(=O)[C@@H]4CCCN4C(=O)[C@@H](NC(=O)[C@H](Cc4ccccc4)NC(C)=O)CCCNC3=O)c2)cc1 [compound 26] (Ac-F[Orn]P[dCha]W[X9]; lactam 2-C) , IC50 observed: 200 to 2000 nM

compound CC(C)CC[C@@H]1NC(=O)[C@H](Cc2c[nH]c3ccccc23)NC(=O)[C@@H](CCC(C)C)NC(=O)[C@@H]2C[C@@H](O)CN2C(=O)[C@@H](NC(=O)[C@@H](N)Cc2ccccc2)CCCNC1=O [Compound 367, H-Phe-[Orn-Hyp-hle-Trp-Hle]] (H-F[Orn][Hyp][d(hLeu)]W[hLeu]; lactam 2-C) , IC50 observed: 50 to 200 nM

compound CC(=O)N[C@@H](Cc1ccccc1)C(=O)N[C@H]1CCCNC(=O)[C@H](CCN)NC(=O)[C@H](Cc2c[nH]c3ccccc23)NC(=O)[C@@H](CC2CCCCC2)NC(=O)[C@@H]2CCCN2C1=O [compound 25] (Ac-F[Orn]P[dCha]W[Dab]; lactam 2-C) , IC50 observed: 50 to 200 nM

compound CC(=O)N[C@@H](Cc1ccccc1)C(=O)N[C@@H](CCCN)C(=O)N1Cc2ccccc2C[C@H]1C(=O)N[C@H](CC1CCCCC1)C(=O)N[C@@H](Cc1c[nH]c2ccccc12)C(=O)N[C@@H](Cc1ccccc1)C(=O)O [Compound 116, Ac-Phe-Orn-Tic-cha-Trp-Phe-OH] (Ac-F[Orn][Tic][dCha]WF-OH) , IC50 observed: 200 to 2000 nM

compound CC(=O)N[C@@H](Cc1ccccc1)C(=O)N[C@@H](CCCN)C(=O)N1CCC[C@H]1C(=O)N[C@H](CC1CCCCC1)C(=O)N[C@@H](Cc1csc2ccccc12)C(=O)N[C@@H](Cc1cccc(Cl)c1)C(N)=O [Compound 254, Ac-Phe-Orn-Pro-cha-Bta-Mcf-NH2] (Ac-F[Orn]P[dCha][Bta][Phe(3-Cl)]-NH2) , IC50 observed: 50 to 200 nM

compound CC(=O)N[C@@H](Cc1ccccc1)C(=O)N[C@@H](CCCN)C(=O)N1CCC[C@H]1C(=O)N[C@H](CC1CCCCC1)C(=O)N[C@@H](Cc1c[nH]c2ccccc12)C(=O)N[C@H](C(N)=O)c1ccccc1 [Compound 111, Ac-Phe-Orn-Pro-cha-Trp-Phg-NH2] (Ac-F[Orn]P[dCha]W[Phg]-NH2) , IC50 observed: 200 to 2000 nM

compound CC(=O)N[C@@H](Cc1ccccc1)C(=O)N[C@@H](CCCN)C(=O)N1C[C@H](O)C[C@H]1C(=O)N[C@H](CC1CCCCC1)C(=O)N[C@@H](Cc1c[nH]c2ccccc12)C(=O)N[C@@H](Cc1ccccc1)C(N)=O [Compound 93, Ac-Phe-Orn-Hyp-cha-Trp-Phe-NH2] (Ac-F[Orn][Hyp][dCha]WF-NH2) , IC50 observed: 200 to 2000 nM

compound CC(C)CC[C@H]1NC(=O)[C@@H]2C[C@@H](O)CN2C(=O)[C@@H](NC(=O)[C@@H](N)Cc2ccccc2)CCCNC(=O)[C@H](CC(C)C)NC(=O)[C@H](Cc2ccc(F)cc2)NC1=O [Compound 364, H-Phe-[Orn-Hyp-hle-Pff-Leu]] (H-F[Orn][Hyp][d(hLeu)][Phe(4-F)]L; lactam 2-C) , IC50 observed: 50 to 200 nM

compound CC(=O)N[C@@H](Cc1ccccc1)C(=O)N[C@H]1CCCNC(=O)[C@H](CCCNC(=N)N)NC(=O)[C@H](Cc2c[nH]c3ccccc23)NC(=O)[C@@H](CC2CCCCC2)NC(=O)[C@H](C)N(C)C1=O [compound 46] (Ac-F[Orn][NMeA][dCha]WR; lactam 2-C) , IC50 observed: 20 to 50 nM

compound CC(=O)N[C@@H](CCCNC(=N)N)C(=O)N[C@@H](Cc1ccccc1)C(=O)N[C@@H](CCCN)C(=O)N1CC[C@H]1C(=O)N[C@H](CC1CCCCC1)C(=O)N[C@@H](Cc1csc2ccccc12)C(=O)N[C@@H](Cc1ccccc1)C(N)=O [Compound 137, Ac-Arg-Phe-Orn-Aze-cha-Bta-Phe-NH2] (Ac-RF[Orn][Aze][dCha][Bta]F-NH2) , IC50 observed: 20 to 50 nM
